Biological target: human sEH (Homo sapiens)
Construct: made in house; host or cells: baculovirus expression system
Sequence (P34913 whole entry): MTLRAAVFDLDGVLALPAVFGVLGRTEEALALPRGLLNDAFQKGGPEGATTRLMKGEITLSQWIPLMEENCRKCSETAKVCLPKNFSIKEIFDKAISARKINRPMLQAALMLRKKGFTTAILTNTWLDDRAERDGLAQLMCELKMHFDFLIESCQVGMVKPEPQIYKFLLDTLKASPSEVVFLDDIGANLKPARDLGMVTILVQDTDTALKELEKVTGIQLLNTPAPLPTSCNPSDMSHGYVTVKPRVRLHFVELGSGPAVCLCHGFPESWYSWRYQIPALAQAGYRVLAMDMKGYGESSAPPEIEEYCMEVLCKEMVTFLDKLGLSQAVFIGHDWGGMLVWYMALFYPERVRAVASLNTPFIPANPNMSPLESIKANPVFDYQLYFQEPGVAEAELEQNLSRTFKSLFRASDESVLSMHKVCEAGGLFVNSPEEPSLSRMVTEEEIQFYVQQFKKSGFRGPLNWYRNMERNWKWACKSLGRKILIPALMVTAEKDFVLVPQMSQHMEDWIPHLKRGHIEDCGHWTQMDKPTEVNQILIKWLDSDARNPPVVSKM
Assay: Inhibition of recombinant human sEH, IC50 assay with 4-nitrophenyl-trans-2,3-epoxy-3-phenylpropyl carbonate as substrate
Format: biochemical
Conditions: Table 2; […] enzyme, 5 min preincubation, pH 7.4, 30° C.; means ± SD; read-out: IC50 (μM) Human sEH
Listed below: IC50 values for each entry.

- Molecule: "CCCCCCCCCCCCNC(=O)NC1CCCCC1 [Compound 297, 1-cyclohexyl-3-dodecyl urea, reference compound]"
  IC50, µM: 0.14
- Molecule: "CCCCCOC(=O)CCCNC(=O)NC1CCCCC1"
  IC50, µM: 1.02
- Molecule: "CCCCCCCCCCCCNC(=O)NC12CC3CC(CC(C3)C1)C2 [Compound 686, 1-adamantyl-3-dodecylurea, reference compound]"
  IC50, µM: 0.1
- Molecule: "CCCCCCCCCCNC(=O)NC12CC3CC(CC(C3)C1)C2 [Compound 790, reference compound]"
  IC50, µM: 0.1
- Molecule: "CCCCCCCCCCNC(=O)NC1CCCCC1 [Compound 791, reference compound]"
  IC50, µM: 0.14
- Molecule: "CCCCCOC(=O)CCCNC(=O)NC12CC3CC(CC(C3)C1)C2"
  IC50, µM: 0.17

----------
Listed below: IC50 values for each entry.
Biological target: mouse sEH (Mus musculus)
Construct: made in house; host or cells: baculovirus expression system
Sequence (P34914 1-554): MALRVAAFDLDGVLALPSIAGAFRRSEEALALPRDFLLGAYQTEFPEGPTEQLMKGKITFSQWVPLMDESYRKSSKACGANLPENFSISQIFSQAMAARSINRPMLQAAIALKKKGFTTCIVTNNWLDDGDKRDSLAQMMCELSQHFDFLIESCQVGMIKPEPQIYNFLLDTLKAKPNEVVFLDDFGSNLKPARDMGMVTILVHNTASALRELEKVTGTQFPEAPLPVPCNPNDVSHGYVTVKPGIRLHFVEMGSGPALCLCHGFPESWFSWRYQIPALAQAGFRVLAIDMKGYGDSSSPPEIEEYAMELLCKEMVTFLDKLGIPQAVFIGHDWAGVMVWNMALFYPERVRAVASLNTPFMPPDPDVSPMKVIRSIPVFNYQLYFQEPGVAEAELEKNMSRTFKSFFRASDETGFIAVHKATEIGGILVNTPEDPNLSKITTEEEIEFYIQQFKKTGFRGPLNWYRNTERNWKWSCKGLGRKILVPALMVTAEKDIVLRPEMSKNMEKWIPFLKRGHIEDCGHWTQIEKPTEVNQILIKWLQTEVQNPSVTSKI
Assay: Inhibition of recombinant mouse sEH, IC50 assay with 4-nitrophenyl-trans-2,3-epoxy-3-phenylpropyl carbonate as substrate
Format: biochemical
Conditions: Table 10; unpurified reaction solutions used directly, theoretical concentration 10 mM; means ± SD of three experiments; read-out: Mouse sEH IC50
Metric: IC50

- Compound: "O=C(CCCNC(=O)NC1CCCCC1)NC(Cc1c[nH]cn1)C(=O)O (stereo not drawn)"
  Metric: "IC50"
  Endpoint Value: "1.9 µM"
- Compound: "CC(O)C(NC(=O)CCCNC(=O)NC1CCCCC1)C(=O)O (stereo not drawn)"
  Metric: "IC50"
  Endpoint Value: "> 50 µM"
- Compound: "CC(C)C[C@H](N)C(=O)O"
  Metric: "IC50"
  Endpoint Value: "> 50 µM"
- Compound: "NCC(=O)O"
  Metric: "IC50"
  Endpoint Value: "> 50 µM"
- Compound: "N[C@@H](CS)C(=O)O"
  Metric: "IC50"
  Endpoint Value: "> 50 µM"
- Compound: "N[C@@H](CCC(=O)O)C(=O)O [Glutamate]"
  Metric: "IC50"
  Endpoint Value: "> 50 µM"

----------
Target: rat sEH (Rattus norvegicus)
Construct: was hydrolyzed to 30% by rat renal cortex cytosol; from tissue; host or cells: rat renal cortex cytosol
Sequence (P80299 whole entry): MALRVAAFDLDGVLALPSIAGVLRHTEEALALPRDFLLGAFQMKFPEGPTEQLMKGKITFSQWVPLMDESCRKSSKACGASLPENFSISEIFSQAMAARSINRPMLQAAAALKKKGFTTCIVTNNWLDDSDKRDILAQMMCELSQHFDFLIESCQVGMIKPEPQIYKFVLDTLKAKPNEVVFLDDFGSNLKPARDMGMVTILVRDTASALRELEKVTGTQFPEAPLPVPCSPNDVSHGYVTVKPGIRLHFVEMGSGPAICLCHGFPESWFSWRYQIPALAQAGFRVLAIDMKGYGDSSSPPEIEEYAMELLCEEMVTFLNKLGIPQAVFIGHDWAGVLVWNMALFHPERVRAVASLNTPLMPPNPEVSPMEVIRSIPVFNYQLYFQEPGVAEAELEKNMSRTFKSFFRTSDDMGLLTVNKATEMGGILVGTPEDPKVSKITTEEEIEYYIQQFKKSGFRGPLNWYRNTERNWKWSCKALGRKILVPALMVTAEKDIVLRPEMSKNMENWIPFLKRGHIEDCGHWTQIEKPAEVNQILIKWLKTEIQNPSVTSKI
Test: Relative turnover of arachidonic acid epoxides by rat sEH
Format: biochemical
Conditions: Table 20; arachidonic acid epoxides with the rat sEH
Listed below: Relative EET Turnover values for each entry.

- Molecule: "CCCCCC1OC1C/C=C\\C/C=C\\C/C=C\\CCCC(=O)O (stereo not shown)"
  Relative EET Turnover: 14.3
- Molecule: "CCCCC/C=C\\C[C@H]1O[C@H]1C/C=C\\C/C=C\\CCCC(=O)O"
  Relative EET Turnover: 8.1
- Molecule: "CCCCC/C=C\\C/C=C\\CC1OC1C/C=C\\CCCC(=O)O (stereo not shown)"
  Relative EET Turnover: 1
- Molecule: "CCCCC/C=C\\C/C=C\\C/C=C\\CC1OC1CCCC(=O)O (stereo not shown)"
  Relative EET Turnover: 0.1

----------
Molecular target: human sEH (Homo sapiens)
Construct: made in house; host or cells: baculovirus expression system
Assay: Inhibition of recombinant human sEH, IC50 assay with 4-nitrophenyl-trans-2,3-epoxy-3-phenylpropyl carbonate as substrate
Assay type: biochemical
Conditions: Tables 17a and b; read-out: IC50 (μM) Human sEH

- Compound: "C#CCCCCCCNC(=O)NC12CC3CC(CC(C3)C1)C2"
  Display Unit: "µM"
  IC50: 0.1
- Compound: "O=C(CCCCc1ccccc1)NC12CC3CC(CC(C3)C1)C2"
  Display Unit: "µM"
  IC50: 0.99
- Compound: "CCCCC(CO)NC(=O)NC1CCCCC1 (stereo not shown)"
  Display Unit: "µM"
  IC50: 0.25
- Compound: "O=C(NCCCC(=O)OCc1ccccc1)NC12CC3CC(CC(C3)C1)C2"
  Display Unit: "µM"
  IC50: 0.19
- Compound: "O=C(NCCCCCCCCCCCn1ccnc1)NC12CC3CC(CC(C3)C1)C2"
  Display Unit: "µM"
  IC50: 63
- Compound: "O=C(NN1CCOCC1)NC12CC3CC(CC(C3)C1)C2"
  Display Unit: "µM"
  IC50: 8.7
- Compound: "CCOC(=O)CCCCCCOCCCCCNC(=O)NC12CC3CC(CC(C3)C1)C2"
  Display Unit: "µM"
  IC50: 0.11
- Compound: "CCCCCNC(=O)NC(CO)c1ccccc1 (stereo not shown)"
  Display Unit: "µM"
  IC50: 22.1
- Compound: "O=C(CC1CCCCC1)Nc1ccccc1"
  Display Unit: "µM"
  IC50: 16
- Compound: "CN(C)c1cccc2c(S(=O)(=O)NCCNC(=O)NC34CC5CC(CC(C5)C3)C4)cccc12"
  Display Unit: "µM"
  IC50: 0.6
- Compound: "N#CC(OC(=O)CCCNC(=O)NC12CC3CC(CC(C3)C1)C2)c1ccccc1 (stereo not shown)"
  Display Unit: "µM"
  IC50: 0.15
- Compound: "CC(C)c1cccc2c(S(=O)(=O)NCCCOCCCCCNC(=O)NC34CC5CC(CC(C5)C3)C4)cccc12"
  Display Unit: "µM"
  IC50: 0.29
- Compound: "CC(C)=CCCC(C)CCOCCCCCNC(=O)NC12CC3CC(CC(C3)C1)C2 (stereo not shown)"
  Display Unit: "µM"
  IC50: 0.12
- Compound: "O=C(CC1CCCCC1)NCCc1ccccc1"
  Display Unit: "µM"
  IC50: 4
- Compound: "CCCCCCCCCCCCNC(=O)NC1CCN(c2ccc(S(=O)(=O)C(C)C)c3nonc23)C1 (stereo not shown)"
  Display Unit: "µM"
  IC50: 0.12
- Compound: "CCOC(=O)c1ccc(C(C)OC(=O)CCCNC(=O)NC23CC4CC(CC(C4)C2)C3)cc1 (stereo not shown)"
  Display Unit: "µM"
  IC50: 0.12
- Compound: "CCCCCOC(=O)CCCCC(=O)Nc1cccc(Cl)c1"
  Display Unit: "µM"
  IC50: 5.9
- Compound: "CC(C)OCCOCCOCCCCCNC(=O)NC12CC3CC(CC(C3)C1)C2"
  Display Unit: "µM"
  IC50: 0.1
- Compound: "CCCC(C)COCCOCCOCCCCCNC(=O)NC12CC3CC(CC(C3)C1)C2 (stereo not shown)"
  Display Unit: "µM"
  IC50: 0.13

----------
Biological target: mouse sEH (Mus musculus, UniProt P34914)
Construct: made in house; host or cells: baculovirus expression system
Test: Inhibition of recombinant mouse sEH, IC50 assay with 4-nitrophenyl-trans-2,3-epoxy-3-phenylpropyl carbonate as substrate
Assay type: biochemical
Conditions: Tables 17a and b; read-out: IC50 (μM) Mouse sEH

- Compound: "O=C(NCCCCCCCCCCCCN[S+]([O-])NC12CC3CC(CC(C3)C1)C2)NC12CC3CC(CC(C3)C1)C2 (stereo not drawn)"
  Display Unit: "µM"
  IC50: 0.45
- Compound: "O=C(Cc1ccccc1)NC1CCCCC1"
  Display Unit: "µM"
  IC50: 2.4
- Compound: "CCCCC(C#N)OC(=O)CCCNC(=O)NC12CC3CC(CC(C3)C1)C2 (stereo not drawn)"
  Display Unit: "µM"
  IC50: 0.05
- Compound: "CCCCCOC(=O)CCCCC(=O)Nc1cccc(Cl)c1"
  Display Unit: "µM"
  IC50: 1.7
- Compound: "C#CCCCCCCNC(=O)NC12CC3CC(CC(C3)C1)C2"
  Display Unit: "µM"
  IC50: 0.05
- Compound: "CCOC(=O)c1ccc(C(C)OC(=O)CCCNC(=O)NC23CC4CC(CC(C4)C2)C3)cc1 (stereo not drawn)"
  Display Unit: "µM"
  IC50: 0.08
- Compound: "CCCCC(CC)OCCCCCNC(=O)NC12CC3CC(CC(C3)C1)C2 (stereo not drawn)"
  Display Unit: "µM"
  IC50: 0.05
- Compound: "N#CC(OC(=O)CCCNC(=O)NC12CC3CC(CC(C3)C1)C2)c1ccccc1 (stereo not drawn)"
  Display Unit: "µM"
  IC50: 0.05
- Compound: "CCOC(=O)CCCCCCOCCCCCNC(=O)NC12CC3CC(CC(C3)C1)C2"
  Display Unit: "µM"
  IC50: 0.05
- Compound: "O=C(CCCNC(=O)NC12CC3CC(CC(C3)C1)C2)NC(C(=O)N1CCCC1C(=O)O)c1c[nH]cn1 (stereo not drawn)"
  Display Unit: "µM"
  IC50: 0.09
- Compound: "CCCCCOC(=O)C1CCCC(NC(=O)NC23CC4CC(CC(C4)C2)C3)C1 (stereo not drawn)"
  Display Unit: "µM"
  IC50: 0.05
- Compound: "CCCCCCCCC(NC(=O)CCCCCCCCCCCNC(=O)NC12CC3CC(CC(C3)C1)C2)C(=O)O (stereo not drawn)"
  Display Unit: "µM"
  IC50: 0.05
- Compound: "CC(=O)Nc1ccc(CC(=O)NC23CC4CC(CC(C4)C2)C3)cc1"
  Display Unit: "µM"
  IC50: 4.1
- Compound: "O=C(NCCCCCCCCCCCn1ccnc1)NC12CC3CC(CC(C3)C1)C2"
  Display Unit: "µM"
  IC50: 2.3
- Compound: "O=C(CC1CCCCC1)NCCCc1ccccc1"
  Display Unit: "µM"
  IC50: 0.73
- Compound: "O=C(Nc1ccc2ccccc2c1)NC1CCCCC1"
  Display Unit: "µM"
  IC50: 0.1
- Compound: "CCCC(C)COCCOCCOCCCCCNC(=O)NC12CC3CC(CC(C3)C1)C2 (stereo not drawn)"
  Display Unit: "µM"
  IC50: 0.05
- Compound: "O=C(CC12CC3CC(CC(C3)C1)C2)NCCCc1ccccc1"
  Display Unit: "µM"
  IC50: 0.07
